Cited source for all entries: paper PMC4133348

Biological target: yCBS (Saccharomyces cerevisiae, UniProt P32582)
Construct: gene CYS4
Sequence (P32582 whole entry): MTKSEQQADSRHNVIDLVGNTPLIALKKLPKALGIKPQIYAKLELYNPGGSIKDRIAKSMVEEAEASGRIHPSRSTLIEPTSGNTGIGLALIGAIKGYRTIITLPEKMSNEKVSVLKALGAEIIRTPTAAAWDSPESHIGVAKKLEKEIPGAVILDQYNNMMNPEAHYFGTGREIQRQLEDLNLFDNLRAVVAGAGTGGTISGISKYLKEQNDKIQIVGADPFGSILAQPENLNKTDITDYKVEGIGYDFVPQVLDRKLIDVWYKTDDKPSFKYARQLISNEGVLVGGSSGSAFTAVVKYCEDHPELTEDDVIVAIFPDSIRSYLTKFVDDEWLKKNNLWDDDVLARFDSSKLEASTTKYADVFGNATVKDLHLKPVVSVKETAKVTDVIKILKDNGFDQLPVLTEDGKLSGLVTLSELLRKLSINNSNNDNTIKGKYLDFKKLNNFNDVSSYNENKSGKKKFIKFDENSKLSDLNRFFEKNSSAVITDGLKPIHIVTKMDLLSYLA
Assay: isothermal titration calorimetry
Format: binding
measurement-name: Kd (µM)
Answers are plain numbers, in µM.

[ask] Given C[S+](CC[C@H](N)C(=O)O)C[C@H]1O[C@@H](n2cnc3c(N)ncnc32)[C@H](O)[C@@H]1O (stereo partly shown) , state its recorded Kd.
[reply] 5
